experiment: Cytotoxicity against human Hep G2 cells; format: functional, HepG2; conditions: Homo sapiens, HepG2
TGI: recorded values

| chemical.smiles | TGI |
| --- | --- |
| Cc1c2oc3c(C)ccc(C(=O)N[C@@H]4C(=O)N[C@H](C(C)C)C(=O)N5[C@H](C(=O)N(C)CC(=O)N(C)[C@@H](C(C)C)C(=O)O[C@@H]4C)[C@@H](O)C[C@@H]5C)c3nc-2c(C(=O)N[C@@H]2C(=O)N[C@H](C(C)C)C(=O)N3CCC[C@H]3C(=O)N(C)CC(=O)N(C)[C@@H](C)C(=O)O[C@@H]2CCl)c(N)c1=O | 18 nM |
| Cc1c2oc3c(C)ccc(C(=O)N[C@@H]4C(=O)N[C@H](C(C)C)C(=O)N5[C@H](C(=O)N(C)CC(=O)N(C)[C@@H](C(C)C)C(=O)O[C@@H]4C)[C@@H](O)C[C@@H]5C)c3nc-2c(C(=O)N[C@@H]2C(=O)N[C@H](C(C)C)C(=O)N3CCC[C@H]3C(=O)N(C)CC(=O)N(C)[C@@H](C)C(=O)O[C@@H]2C)c(N)c1=O | 1400 nM |
| Cc1c2oc3c(C)ccc(C(=O)N[C@@H]4C(=O)N[C@H](C(C)C)C(=O)N5[C@H](C(=O)N(C)CC(=O)N(C)[C@@H](C(C)C)C(=O)O[C@@H]4C)[C@@H](O)C[C@@H]5C)c3nc-2c2c(c1=O)OC[C@H]1OC(=O)[C@H](C)N(C)C(=O)CN(C)C(=O)[C@@H]3CCCN3C(=O)[C@@H](C(C)C)NC(=O)[C@H]1NC2=O | 7800 nM |
